System: NCI-H522 lung
Experiment: NCI-60 one-dose screen, 48 h
Details: 10 µM unless noted
This is part of a sample that, as a whole, favours compounds with a hit. Of some 83,000 tested, about 20% had one in any assay. Active and inactive are the calls of the source. The calls were made as follows: active = growth percent below 10; inactive = the rest.
Select the matching outcome among active, inactive

Check out these entries, answers already filled in.
| MOLECULE | QUALITATIVE_LABEL |
| --- | --- |
| C=CCCCCCCCCC(=O)[O-].C=CCCCCCCCCC(=O)[O-].[Zn+2] | inactive |
| O=[N+]([O-])c1cc([N+](=O)[O-])c(Cl)cc1Cl | active |
| COC(=O)[C@@]1(O)C[C@H]2O[C@]1(C)n1c3ccccc3c3c4c(c5c6ccccc6n2c5c31)C(=O)NC4 | active |

Status in this test for CC(CC1CCCCC1)NCc1ccccc1 (stereo not drawn) ?
inactive

Status in this test for CC1(C)N=C(N)N=C(N)N1c1ccc(OCCCNC(=O)Nc2ccc(S(=O)(=O)F)cc2)c(Cl)c1 ?
inactive

meta.source: PubChem BioAssay (NCI)
